Molecular target: BRTNaC1 (broad-range thermal receptor 1) (Scolopendra mutilans)
Sequence (A0ABF7PQ77 1-431): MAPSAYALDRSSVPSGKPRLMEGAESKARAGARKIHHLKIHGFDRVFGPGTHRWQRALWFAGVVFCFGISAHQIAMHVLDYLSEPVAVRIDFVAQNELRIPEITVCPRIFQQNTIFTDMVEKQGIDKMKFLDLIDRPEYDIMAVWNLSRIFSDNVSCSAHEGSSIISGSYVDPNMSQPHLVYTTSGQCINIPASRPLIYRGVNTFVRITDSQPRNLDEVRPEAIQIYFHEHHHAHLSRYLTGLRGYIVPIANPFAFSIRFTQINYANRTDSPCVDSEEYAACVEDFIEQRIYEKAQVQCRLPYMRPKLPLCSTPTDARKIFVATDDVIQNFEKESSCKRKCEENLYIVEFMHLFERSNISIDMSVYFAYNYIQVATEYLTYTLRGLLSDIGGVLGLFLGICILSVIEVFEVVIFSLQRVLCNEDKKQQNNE
Assay: patch clamp, transfected HEK293 cells, heat-activated current, Hill fit
Format: cell-based
OUTCOME_MEASURE: IC50 (µM)
# value in µM; strip the unit string

Short answer on BRTNaC1 (broad-range thermal receptor 1) (Scolopendra mutilans) for C[C@]12CC[C@H]3[C@@H](CCC4=CC(=O)CC[C@@]43C)[C@@H]1CC[C@@H]2O , IC50: 3.8
